Data credit: patent US6696476B2

Hi! I'm sharing some IC50 results obtained with 5-HT2A Receptor (Rattus norvegicus, UniProt P14842).
Sequence (P14842 whole entry): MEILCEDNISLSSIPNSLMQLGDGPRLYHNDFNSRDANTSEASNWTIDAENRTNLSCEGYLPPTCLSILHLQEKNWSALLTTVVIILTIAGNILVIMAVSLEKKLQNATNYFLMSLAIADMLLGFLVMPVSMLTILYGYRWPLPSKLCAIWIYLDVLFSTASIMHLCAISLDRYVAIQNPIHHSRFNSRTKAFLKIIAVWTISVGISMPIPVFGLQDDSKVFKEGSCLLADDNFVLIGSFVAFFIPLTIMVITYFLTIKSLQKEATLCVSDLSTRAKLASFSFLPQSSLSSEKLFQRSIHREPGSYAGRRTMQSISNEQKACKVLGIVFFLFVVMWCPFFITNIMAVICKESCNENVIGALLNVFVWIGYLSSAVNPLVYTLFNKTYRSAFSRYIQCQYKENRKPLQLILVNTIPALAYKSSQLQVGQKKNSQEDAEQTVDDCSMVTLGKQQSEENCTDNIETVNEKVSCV
readout-kind: IC50 (nM)

compound | readout-kind | data-value
C[C@H](N)Cn1ncc2ccc3c(c21)C[C@H](O)CO3 [Example 5] | IC50 | 3.44
C[C@H](N)Cn1ncc2ccc3c(c21)C[C@@H](OCCO)CO3.Cl.Cl [Example 13, Dihydrochloride] | IC50 | 3.38
CC(=O)NCCO[C@H]1COc2ccc3cnn(C[C@H](C)N)c3c2C1 [Example 14] | IC50 | 5.34

====

Structures can show the parent of a compound that is named as a salt.
Hi! I'm sharing some IC50 results obtained with 5-HT2A Receptor (Rattus norvegicus).
readout-kind: IC50 (nM)

compound | readout-kind | units | data-value
C[C@H](N)Cc1n[nH]c2ccc3c(c12)CCCO3 | IC50 | nM | 0.79
C[C@H](N)Cn1ncc2ccc3c(c21)CC(O)CO3 (stereo partly drawn) | IC50 | nM | 2.19
C[C@H](N)Cn1ncc2ccc3c(c21)CCCO3.Cl.Cl [Example 8, Dihydrochloride] | IC50 | nM | 0.686
C[C@H](N)Cn1ncc2ccc3c(c21)C[C@@H](O)CO3 | IC50 | nM | 2.25
C[C@H](N)Cn1ncc2ccc3c(c21)C=CCO3 | IC50 | nM | 0.274
C[C@H](N)Cn1ncc2ccc3c(c21)[C@H](O)[C@H](O)CO3 (relative stereo) | IC50 | nM | 3.73
C[C@H](N)Cn1ncc2ccc3c(c21)C[C@@H](N)CO3.Cl.Cl.Cl [Example 6, Trihydrochloride] | IC50 | nM | 6.56
C[C@H](N)Cn1ncc2ccc3c(c21)C[C@@H](OCC(=O)OC(C)(C)C)CO3 [Example 16, Dihydrochloride] | IC50 | nM | 1.94
C[C@H](N)Cn1ncc2ccc3c(c21)C[C@@H](OCC(N)=O)CO3 | IC50 | nM | 2.87

====

Biological target: 5-HT2A Receptor (Rattus norvegicus)
Assay: 5-HT2 Functional Assay: [Ca2+]i Mobilization (FLIPR, A7r5 cells)
Assay type: cell-based
Design: endogenous in cells; host or cells: A7r5 rat vascular smooth muscle cells
Settings: percentage of a maximum 5-HT-induced response, A7r5 cells; read-out: Efficacy (Emax, %)
Where a name gives a salt, the structure may show the parent alone.
Param threshold (80%) applies to Emax; output criterion met when value >= threshold, criterion not met when value < threshold.

compound | group-label
C[C@H](N)Cn1ncc2ccc3c(c21)C[C@@H](N)CO3.Cl.Cl.Cl [Example 6, Trihydrochloride] | criterion met
C[C@H](N)Cn1ncc2ccc3c(c21)C[C@@H](O)CO3 [Example 4] | criterion met
C[C@H](N)Cn1ncc2ccc3c(c21)C[C@@H](OCC(=O)OC(C)(C)C)CO3 [Example 16, Dihydrochloride] | criterion not met
C[C@H](N)Cn1ncc2ccc3c(c21)CCCO3.Cl.Cl [Example 8, Dihydrochloride] | criterion met
C[C@H](N)Cc1n[nH]c2ccc3c(c12)CCCO3 [Example 17] | criterion met
C[C@H](N)Cn1ncc2ccc3c(c21)C[C@H](O)CO3 [Example 5] | criterion not met
CC(=O)NCCO[C@H]1COc2ccc3cnn(C[C@H](C)N)c3c2C1 [Example 14] | criterion met

====

Recorded melting point values for a group of compounds are listed next.
Counter-ions that a name gives are not always drawn.

compound | melting point
CC(=O)NCCO[C@H]1COc2ccc3cnn(C[C@H](C)N)c3c2C1 [Example 14] | 165 to 166 °C
C[C@H](N)Cn1ncc2ccc3c(c21)[C@H](O)[C@H](O)CO3 (relative stereo) [Example 7] | 115 to 117 °C
C[C@H](N)Cn1ncc2ccc3c(c21)C[C@@H](O)CO3 [Example 4] | 126 to 128 °C
C[C@H](N)Cn1ncc2ccc3c(c21)CCCO3.Cl.Cl [Example 8] | 95 to 98 °C
C[C@H](N)Cn1ncc2ccc3c(c21)C[C@@H](OCCO)CO3.Cl.Cl [Example 13] | > 100 °C
C[C@@H](N)Cn1ncc2ccc3c(c21)CC(O)CO3.Cl (stereo partly drawn) | 82 to 86 °C
C[C@H](N)Cn1ncc2ccc3c(c21)C(N)C(O)CO3 (stereo partly drawn) | 84 to 88 °C
COC1c2c(ccc3cnn(C[C@H](C)N)c23)OCC1O (stereo partly drawn) | 105 to 108 °C
CC(N)Cn1ncc2ccc3c(c21)CC(O)CO3 (stereo not drawn) | 124 to 125 °C
C[C@H](N)Cn1ncc2ccc3c(c21)C[C@@H](N)CO3.Cl.Cl.Cl [Example 6] | > 300 °C
C[C@H](N)Cc1n[nH]c2ccc3c(c12)CCCO3 (as salt: hydrochloride) [Example 17] | 235 to 240 °C
C[C@H](N)Cn1ncc2ccc3c(c21)CC(O)CO3 (stereo partly drawn) [Example 3] | 46 to 51 °C
